system: Parabacteroides distasonis; assay: growth AUC relative to DMSO control (median of replicates) (fraction); higher = more growth (less inhibition), active = hit call of the paper; conditions: 20 µM; 24 h
assay readout: growth AUC

- N#Cc1c(Cl)cccc1Cl: 1.04
- CCNc1nc(NCC)nc(SC)n1: 1.01
- CCC1COC(Cn2cncn2)(c2ccc(Cl)cc2Cl)O1 (configuration not stated): 1
- Clc1c(Cl)c(Cl)c(Cl)c(Cl)c1Cl: 1.03
- CCCCN(CCCC)N=O: 1.16
- ClC1=C(Cl)C2(Cl)C3C4C=CC(C4)C3C1(Cl)C2(Cl)Cl (configuration not stated): 1.05
- COc1nc(NC(C)C)nc(NC(C)C)n1: 1.03

###

test system: Coprococcus comes; experiment: growth AUC relative to DMSO control (median of replicates) (fraction); higher = more growth (less inhibition), active = hit call of the paper; settings: 20 µM; 24 h
Recorded measurements of growth AUC, one per entry
assay readout: growth AUC

* O=C(Cc1ccccc1)N/C(=N\OCC1CC1)c1c(C(F)(F)F)ccc(F)c1F | 1.01
* CCc1ccc(C(=O)NN(C(=O)c2cc(C)cc(C)c2)C(C)(C)C)cc1 | 0.987
* Oc1ccc(Cl)cc1 | 0.989
* CC1CNC(=S)N1 (centres undefined) | 1.03
* COP(=S)(NC(C)C)Oc1ccc(C)cc1[N+](=O)[O-] (centres undefined) | 1.03
* O=C1C=CC(=O)C=C1 | 1.02
* CCN(C(=O)n1nnn(-c2ccccc2Cl)c1=O)C1CCCCC1 | 0.942
* CNC(=O)c1cc(C#N)cc(C)c1NC(=O)c1cc(Br)nn1-c1ncccc1Cl | 0.996
* COc1cc(OC)nc(NC(=O)NS(=O)(=O)c2ncccc2C(F)(F)F)n1 | 1.02
* O=C1CCc2cccc3c2N1CC3 | 1.03
* COP(=S)(OC)Oc1cc(Cl)c(I)cc1Cl | 1.01
* CCOP(=O)(OCC)Oc1ccc([N+](=O)[O-])cc1 | 1.03
* COC(=O)COc1ccc(Cl)cc1Cl | 0.98
* O=S(=O)(c1ccc(Cl)cc1)c1cc(Cl)c(Cl)cc1Cl | 0.987
* CCCSC(=O)N(CCC)CCC | 0.994
* CCOP(=S)(OCC)Oc1nc(Cl)c(Cl)cc1Cl | 0.995
* CO/N=C(/C1=NOCCO1)c1ccccc1Oc1ncnc(Oc2ccccc2Cl)c1F | 0.962
* O=[N+]([O-])NC1=NCOCN1Cc1cnc(Cl)s1 | 0.971
* NC(=O)/N=C1/SCCN1Cc1ccc(Cl)nc1 | 0.965
* COP(=S)(OC)Oc1ccc(S(C)(=O)=O)c(C)c1 | 1.03
* CC1(C)C(C(=O)OC(C#N)c2cccc(Oc3ccccc3)c2)C1(C)C (centres undefined) | 1.03
* CN=C=S | 1
* ClC1=C(Cl)C2(Cl)[C@H]3[C@H]4O[C@H]4[C@H](Cl)[C@H]3C1(Cl)C2(Cl)Cl (single isomer, unassigned; isomer a) | 0.941
* CCOP(=O)(N=C1SCC(C)S1)OCC (centres undefined) | 1.03

###

tested on: Bifidobacterium longum subsp. longum; test: growth AUC relative to DMSO control (median of replicates) (fraction); higher = more growth (less inhibition), active = hit call of the paper; settings: 20 µM; 24 h
In this section, each of the molecules is paired with its reported growth AUC.
assay readout: growth AUC

• C=CC(N)=O = 0.875
• CC(C)CC(C)c1sccc1NC(=O)c1cn(C)nc1C(F)(F)F (configuration not stated) = 1.02
• CN/C(=N\[N+](=O)[O-])NCc1cnc(Cl)s1 = 1.03
• C=CCC1=C(C)C(OC(=O)C2C(C=C(C)C)C2(C)C)CC1=O (mixture of isomers) = 0.96
• CCOP(=O)(OCC)Oc1ccc(S(C)(=O)=O)cc1 = 1.04
• S=C1NCCN1 = 0.947
• N#CN=C1SCCN1Cc1ccc(Cl)nc1 = 1.04
• CCOP(=S)(OCC)Oc1ccc([N+](=O)[O-])cc1 = 1.03
• CC(C)OP(=O)(OC(C)C)SCc1ccccc1 = 0.902
• O=C1C[C@@H]2OCC=C3CN4CC[C@]56c7ccccc7N1[C@H]5[C@H]2[C@H]3C[C@H]46 = 1.09
• COC(=O)COc1ccc(Cl)cc1Cl = 0.914
• CCNc1nc(Cl)nc(NC(C)C)n1 = 1.02

###

The reader will find reported growth AUC values listed item by item below.
system: Bacteroides clarus; experiment: growth AUC relative to DMSO control (median of replicates) (fraction); higher = more growth (less inhibition), active = hit call of the paper; details: 20 µM; 24 h
assay readout: growth AUC

- N#Cc1nn(-c2c(Cl)cc(C(F)(F)F)cc2Cl)c(N)c1C(F)(F)F: 0.741
- CCCCNC(=O)n1c(NC(=O)OC)nc2ccccc21: 0.979
- COc1nn(CSP(=S)(OC)OC)c(=O)s1: 1.02
- O=C1C=CC(=O)C=C1: 0.992
- Cc1nnc(-c2ccccc2)c(=O)n1N: 1
- COP(=O)(OC)O/C(=C/Br)c1ccc(Cl)cc1Cl: 0.978
- O=S(=O)(Oc1ccc(Cl)cc1)c1ccc(Cl)cc1: 0.998
- CCCSP(=S)(OCC)Oc1ccc(SC)cc1 (stereo unspecified): 0.958
- N#CC(CCc1ccc(Cl)cc1)(Cn1cncn1)c1ccccc1 (stereo unspecified): 0.961
- CN=C=S: 0.977
- Nc1c(Cl)c(F)nc(OCC(=O)O)c1Cl: 0.968
- CC(Oc1ccc(Oc2ccc(Cl)cc2Cl)cc1)C(=O)O (racemic): 0.875
- CCNP(=S)(OC)O/C(C)=C/C(=O)OC(C)C (stereo unspecified): 0.957
- C#CCN1C(=O)COc2cc(F)c(N3C(=O)C4=C(CCCC4)C3=O)cc21: 0.994
- C/C(=N/Nc1nc(C)cc(C)n1)c1ccccc1C: 1.06
- CN(C)C(=S)SSC(=S)N(C)C: 0.967
- CCCSC(=O)N(CCC)CCC: 0.957
- NCCO.O=C(O)c1nc(Cl)ccc1Cl: 1.04
- CCOP(=S)(Oc1cnc(C(C)(C)C)nc1)OC(C)C (stereo unspecified): 0.94
- CCOP(=O)(OCC)O/C(=C/Br)c1ccc(Cl)cc1Cl: 0.952
- Nc1ncn[nH]1: 1.01
- CCNS(=O)(=O)C(F)(F)C(F)(F)C(F)(F)C(F)(F)C(F)(F)C(F)(F)C(F)(F)C(F)(F)F: 0.906
- COC(=O)Nc1cccc(OC(=O)Nc2cccc(C)c2)c1: 0.983
- OCC(O)CCl (stereo unspecified): 0.998
- C#CCC1=C(C)C(OC(=O)C2C(C=C(C)C)C2(C)C)CC1=O (stereo unspecified): 1.04
- CCOCCN(C(=O)CCl)C(=C(C)C)c1ccccc1: 0.998

###

system: Lactobacillus paracasei; assay: growth AUC relative to DMSO control (median of replicates) (fraction); higher = more growth (less inhibition), active = hit call of the paper; settings: 20 µM; 24 h
Catalogue of growth AUC values
assay readout: growth AUC

- CCOCCN(C(=O)CCl)C(=C(C)C)c1ccccc1: 1.01
- COP(=S)(OC)Oc1cc(Cl)c(Br)cc1Cl: 0.996
- O=C(O)COc1ccccc1: 0.753
- CCOC(=O)Nc1cccc(OC(=O)Nc2ccccc2)c1: 0.908
- CCNc1nc(Cl)nc(NC(C)(C)C)n1: 1.03
- CCS(=O)(=O)c1nc2ccccn2c1S(=O)(=O)NC(=O)Nc1nc(OC)cc(OC)n1: 1.01
- O=[N+]([O-])c1ccc2ccc3cccc4ccc1c2c34: 1.02
- COP(=S)(OC)Oc1ccc(S(N)(=O)=O)cc1: 1.05
- C/C(=N/Nc1nc(C)cc(C)n1)c1ccccc1C: 1.1
- CNC(=O)O/N=C/C(C)(C)S(C)=O (configuration not stated): 1.01
- Nc1cccc(Cl)c1Cl: 0.962
- CNC(=O)c1cc(Cl)cc(C)c1NC(=O)c1cc(Br)nn1-c1ncccc1Cl: 0.961

###

tested on: Collinsella aerofaciens; test: growth AUC relative to DMSO control (median of replicates) (fraction); higher = more growth (less inhibition), active = hit call of the paper; conditions: 20 µM; 24 h
assay readout: growth AUC

* ClCC1C(CCl)C2(Cl)C(Cl)=C(Cl)C1(Cl)C2(Cl)Cl (configuration not stated) | 0.962
* O=C(O)CCl | 0.976
* CCCCN(CC)C(=O)SCCC | 0.982
* CNC(=O)O/N=C/C(C)(C)S(C)(=O)=O | 1.01
* C=CCN(CC=C)C(=O)C(Cl)Cl | 0.978
* Oc1ccc(Cc2ccc(O)cc2)cc1 | 1.01
* C1CCC(NC2CCCCC2)CC1.O=NO | 1.08
